Each recorded value in this set is attributed to BindingDB's records for doi:10.1021/jm970101g.

# Test Target: Endothelin-1 receptor (Rattus norvegicus) (UniProt P26684)
# Sequence (P26684 whole entry, looked up): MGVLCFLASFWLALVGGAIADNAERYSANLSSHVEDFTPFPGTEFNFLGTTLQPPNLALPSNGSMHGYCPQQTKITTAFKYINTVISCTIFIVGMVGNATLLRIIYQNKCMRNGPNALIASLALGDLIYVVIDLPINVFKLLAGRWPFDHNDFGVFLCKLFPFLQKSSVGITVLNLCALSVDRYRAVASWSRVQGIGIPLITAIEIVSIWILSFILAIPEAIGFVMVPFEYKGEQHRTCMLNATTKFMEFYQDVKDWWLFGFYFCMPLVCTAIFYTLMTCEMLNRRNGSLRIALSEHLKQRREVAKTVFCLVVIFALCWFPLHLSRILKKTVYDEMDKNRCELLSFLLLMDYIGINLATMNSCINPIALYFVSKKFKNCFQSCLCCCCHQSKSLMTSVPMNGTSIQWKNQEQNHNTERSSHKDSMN
# Method Notes: Ability to block the ET-1-induced hydrolysis of inositol phosphate in Endothelin A receptor of MMQ cells.
Quantity Kind: pIC50
Please keep in mind that pIC50 is minus log10 of the molar concentration; only the number is needed.

Can you look up pIC50 on Endothelin-1 receptor (Rattus norvegicus) (UniProt P26684) for CCCN(CCN1C[C@H](c2ccc3c(c2)OCO3)[C@@H](C(=O)O)[C@@H]1c1ccc(OC)c(F)c1)S(=O)(=O)CCCCl ?
9.26
